Experiment: method code SF-AS, from DOI: 10.1246/bcsj.68.782
Conditions: pH 2.0
Can you tell me logD for the items I'm about to list?
Keep the answer to the number alone.

What value of measured logD is listed for Cc1ccc(C(=O)O)cc1[N+](=O)[O-] ?
2.35

// returns reported logD for input O=C(O)c1cccc(F)c1F
1.88

Please report the recorded logD for Cc1ccc(C(=O)O)c(O)c1 .
2.8

Reported logD, compound Cc1c(C(=O)O)cccc1[N+](=O)[O-] : ____
2.16

Data request, read-out logD, for Cc1cc(C(=O)O)ccc1[N+](=O)[O-]
2.42

Using the record for O=C(O)c1cc(Cl)cc(Cl)c1 , report its logD.
3.29

Please give the measured logD for this compound: O=C(O)c1cc(O)c(Br)c(O)c1
1.75

Requested read-out: logD. Entry: O=C(O)c1ccc(Cl)c([N+](=O)[O-])c1
2.53

I'd like to know its logD. The compound in question is COc1cc(C(=O)O)cc(OC)c1O
1.13

Name the recorded logD for O=C(O)c1ccc(Cl)cc1Cl .
2.76

For the compound COc1c([N+](=O)[O-])cc(C(=O)O)cc1[N+](=O)[O-] , what logD is on record?
1.73

Consider the compound Cc1ccc([N+](=O)[O-])c(C(=O)O)c1 and give its measured logD.
1.63

Requested read-out: logD. Entry: COc1cc(C(=O)O)cc(OC)c1OC
1.66
